TESTED ON: Gal4 DNA binding domain fused to the LBD of LXRβ in HEK293 cells (Homo sapiens (Human))
Sequence (P55055 222-460 limits assumed): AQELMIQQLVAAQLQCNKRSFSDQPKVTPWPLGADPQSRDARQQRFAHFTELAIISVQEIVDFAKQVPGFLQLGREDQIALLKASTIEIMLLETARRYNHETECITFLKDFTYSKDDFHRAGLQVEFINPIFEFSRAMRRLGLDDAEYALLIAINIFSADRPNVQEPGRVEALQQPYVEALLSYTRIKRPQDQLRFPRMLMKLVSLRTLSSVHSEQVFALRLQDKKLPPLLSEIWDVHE
ASSAY: cell-based
TEST CONDITIONS: agonist mode
The following compounds are listed with their measured Cell LXRβ efficacy values.

In the examples that follow, each entry is paired with its recorded Cell LXRβ efficacy.
[[record]]
compound = "CC(C)[C@@H]1CN(c2ccc(CO)c(S(C)(=O)=O)c2)CCN1c1nc(C(F)(F)F)c(C(=O)N(C)C)s1 [17-34]"
recorded_value = "105 (94) %"

[[record]]
compound = "Cc1ccccc1[C@H]1CN(c2cccc(S(C)(=O)=O)c2)CCN1Cc1ccc(C(F)(F)F)nc1 (single isomer, unassigned) [46-46]"
recorded_value = "1989 (4) %"

[[record]]
compound = "CNS(=O)(=O)c1cc(N2CCN(c3ncc(C(C)=O)c(C(F)(F)F)n3)[C@H](C(C)C)C2)ccc1F [13-2]"
recorded_value = "33 (58) %"

[[record]]
compound = "CC(C)[C@@H]1CN(c2ccc(CO)c(S(C)(=O)=O)c2)CCN1c1ncc(C(C)(C)O)c(C(F)(F)F)n1 [10-7]"
recorded_value = "235 (40) %"

[[record]]
compound = "CCOC(=O)c1cnc(N2CCN(c3ccc(F)c(S(C)(=O)=O)c3)C[C@H]2C2CC2)nc1C(F)(F)F [9-4]"
recorded_value = "318 (27) %"


Sample CC(F)(F)[C@H]1CC[C@@H](CN2CCN(c3cccc(S(C)(=O)=O)c3)C[C@@H]2c2ccccc2)CC1 (single isomer, unassigned) [48-28] — what was its Cell LXRβ efficacy?
12%

Sample CC(C)[C@@H]1CN(c2ccc(F)c(S(C)(=O)=O)c2)CCN1c1nc(C(F)(F)F)c(C(C)(C)O)o1 [10-8] — what was its Cell LXRβ efficacy?
901 (76) %

Sample CC(C)[C@H]1CN(c2cccc(S(C)(=O)=O)c2)CCN1Cc1ccc(C(F)(F)F)nc1 [46-41] — what was its Cell LXRβ efficacy?
559 (68) %
